# target-system: Histone-lysine N-methyltransferase EHMT2 (Homo sapiens) (UniProt Q96KQ7)
# Sequence (Q96KQ7 913-1193 limits assumed): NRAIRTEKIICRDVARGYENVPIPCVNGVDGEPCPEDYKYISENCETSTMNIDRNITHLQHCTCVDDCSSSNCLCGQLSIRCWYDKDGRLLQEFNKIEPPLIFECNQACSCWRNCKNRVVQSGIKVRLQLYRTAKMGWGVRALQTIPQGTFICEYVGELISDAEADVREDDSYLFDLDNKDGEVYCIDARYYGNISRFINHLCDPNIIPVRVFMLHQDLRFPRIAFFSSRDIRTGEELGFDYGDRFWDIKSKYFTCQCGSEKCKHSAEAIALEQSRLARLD
# test-method-notes: qHTS Assay for Inhibitors of Histone Lysine Methyltransferase G9a; also: nearly all actives have a fitted effect of over 75% in size
# test-settings: G9a H3K9 monomethylation, AlphaScreen, 2 h; series mostly up to 59 µM
The whole screen tested about 350,000 compounds, of which about 31,000 (8.9%) were called active. Inconclusive results (about 15%) are left out. Calls follow the shape of the dose curve; as a rule, active = well fitted inhibition curve with a large enough effect; inconclusive = small, poorly fitted or top-dose-only effect; inactive = no such curve, though single readings can be large or run the other way. What follows is part of a selection rich in actives, with near analogues and random picks from the rest.
Allowed answers: YES for active, NO for inactive

Prompt: Give the logged outcome of this assay for the following compound: CCc1cc(-c2nnc(SCC(=O)NC3CC3)n2C)cs1
Response: NO

Prompt: Give the logged outcome of this assay for the following compound: COc1ccc(C(=O)NCC(c2ccc(N(C)C)cc2)N2CCc3ccccc32)c(OC)c1 (configuration not stated)
Response: NO

Prompt: Give the logged outcome of this assay for the following compound: Cn1c(=O)c2[nH]c(NCC3CCCO3)nc2n(-c2ccccc2)c1=O (configuration not stated)
Response: YES

Prompt: Give the logged outcome of this assay for the following compound: CC(C)C(C)(C#N)NC(=O)CSc1nncn1-c1ccccc1 (configuration not stated)
Response: NO

Prompt: Give the logged outcome of this assay for the following compound: Cc1sc2c(c1C)c(=O)n(-c1ccccc1)c(=O)n2CC(=O)NCC1CCCO1 (configuration not stated)
Response: NO

Prompt: Give the logged outcome of this assay for the following compound: O=C(CCCN=C1NS(=O)(=O)c2ccccc21)OCC(=O)c1ccc(F)c(F)c1
Response: YES

Prompt: Give the logged outcome of this assay for the following compound: CCOc1ccccc1CNC(=O)c1ccc2c(c1)nc1n2CCC(C)C1 (configuration not stated)
Response: NO

Prompt: Give the logged outcome of this assay for the following compound: O=C(NCC(c1cccnc1)N1CCc2ccccc21)c1cccc(C(F)(F)F)c1 (configuration not stated)
Response: NO

Prompt: Give the logged outcome of this assay for the following compound: COc1ccc(CCN=C2SCC(=O)N2Cc2ccccc2)cc1OC
Response: NO

Prompt: Give the logged outcome of this assay for the following compound: COc1ccc(S(=O)(=O)NCC(c2ccc(N(C)C)cc2)N2CCc3ccccc32)cc1OC (configuration not stated)
Response: YES

Prompt: Give the logged outcome of this assay for the following compound: Cc1ccc(S(=O)(=O)NCC(=O)OCC(=O)N2CCc3ccccc32)cc1
Response: NO

Prompt: Give the logged outcome of this assay for the following compound: CC(C)C(C)(C#N)NC(=O)CSc1nc2scc(-c3ccccc3)c2c(=O)[nH]1 (configuration not stated)
Response: YES

Prompt: Give the logged outcome of this assay for the following compound: COc1ccc(C2C(C(C)=O)=C(O)C(=O)N2Cc2cccnc2)cc1 (configuration not stated)
Response: YES

Prompt: Give the logged outcome of this assay for the following compound: CC(C)N(Cc1nnc(-c2ccc(Cl)cc2)o1)C(=O)C1=COCCO1
Response: NO

Prompt: Give the logged outcome of this assay for the following compound: Cc1ccc(NC(=O)COC(=O)CN2CCCCCC2=O)c(C)c1
Response: NO

Prompt: Give the logged outcome of this assay for the following compound: CCc1cc(-c2n[nH]c(=S)n2CC(C)C)cs1
Response: YES

Prompt: Give the logged outcome of this assay for the following compound: O=C1Cc2cc(S(=O)(=O)Nc3ccc(OC(F)(F)F)cc3)cc3c2N1CCC3
Response: NO

Prompt: Give the logged outcome of this assay for the following compound: CC1(C(=O)NNC(=S)NCC2CCCO2)CC1(Cl)Cl (configuration not stated)
Response: NO

Prompt: Give the logged outcome of this assay for the following compound: COc1cc(Cl)c(C)cc1Nc1nnc(-n2nc(C)cc2C)c2ccccc12
Response: NO

Prompt: Give the logged outcome of this assay for the following compound: COc1cc(C2C(C(=O)c3ccc(C)o3)=C(O)C(=O)N2Cc2cccnc2)ccc1O (configuration not stated)
Response: NO

Prompt: Give the logged outcome of this assay for the following compound: O=C(OCCN=C1NS(=O)(=O)c2ccccc21)c1cccc([N+](=O)[O-])c1
Response: NO

Prompt: Give the logged outcome of this assay for the following compound: CCc1ccc(NC(=O)C2CCCN2S(=O)(=O)c2ccc3nc(-c4ccccc4)[nH]c3c2)cc1 (configuration not stated)
Response: NO

All values here come from PubChem BioAssay AID504332.
